From: ChEMBL document CHEMBL1201862

# Tested on: NCI-H460
# assayInfo: NCI tumour cell line growth inhibition, 48 h
Active and inactive are the calls of the source. No stated cut-off is given here; in the data, active = GI50 up to about 1.1 µM and inactive = higher.
measureName: GI50

# example entries with known answers
stdin: Quick one: GI50 for "CC1(C)OCN(c2ccc(N3CCOCC3)cc2)Cn2c1nc1ccccc12" ?
stdout: > 100 µM (inactive)

stdin: Consider the molecule "CCSc1nnc(CSc2nc(-c3ccccc3)c(-c3ccccc3)[nH]2)n1-c1ccccc1" and give its measured GI50.
stdout: 18.9 µM (inactive)

stdin: Reported GI50 for "CC(=O)c1cc2c3c(c1)c1cc4c(cc1c(=O)n3CC2)OCO4" : what is it?
stdout: 11.2 µM (inactive)

stdin: Entry "O=C1OC(c2cccc(C(F)(F)F)c2)(c2cccc(C(F)(F)F)c2)c2ccc3ccccc3c21" : reported GI50 = ?
stdout: > 10 µM (inactive)

stdin: Requested read-out: GI50. Entry: COc1nc2c(c(=O)[nH]1)N=C(c1ccc(Cl)cc1)CC(c1ccccc1)N2 (stereo not given)
stdout: 27.1 µM (inactive)

stdin: What value of measured GI50 is listed for COC(=O)c1c2c(cc3c1CC1(Cc4cc5c(c(C=O)c4C1)CCC5)C3)CCC2 (stereo not given) ?
stdout: 45 µM (inactive)

stdin: If you can, please state the reported GI50 value of "CC1(C)[C@@H](Cn2cnc3c(N)ncnc32)CC[C@@]1(C)CO" .
stdout: > 100 µM (inactive)

stdin: Query: GI50; subject: O=C(CCN1CCN2c3ccccc3CCC2C1)c1ccc(F)cc1 (stereo not given)
stdout: 47.1 µM (inactive)

stdin: Bench note: what GI50 did "O=C1c2cc(O)c(O)cc2O[C@H](c2ccc(O)c(O)c2)[C@H]1O" show?
stdout: 49.7 µM (inactive)

Turning now to a further molecule:
stdin: Returns the measured GI50 for the input molecule. Input: CC(=O)C1C(=O)C(=O)N(CCN2C(=O)C(=O)C(C(C)=O)C2=O)C1=O (stereo not given)
stdout: > 100 µM (inactive)

* * *

# Test system: SNB-75
# assayInfo: NCI tumour cell line growth inhibition, 48 h
The source made the active and inactive calls. Rule as the data show it: active = GI50 up to about 1.1 µM and inactive = higher.
Outcome field: choose from TRUE for active, FALSE for inactive

Worked examples follow.
stdin: Record lookup: outcome of this test for O=S(OC12CC3CC(CC(C3)C1)C2)c1cc(Cl)cc(Cl)c1OCc1ccccc1 (centres undefined) ?
stdout: FALSE

stdin: Fill in: this test's call for "COC(=O)/C=C/c1ccccc1N=[S@](C)(=O)c1ccc(C)cc1" is ___
stdout: FALSE

stdin: Tell me the assay call for "CCCCCCC(=O)OC[n+]1ccc2c(C)c3[nH]c4ccccc4c3c(C)c2c1" please.
stdout: FALSE

stdin: I'd appreciate the recorded outcome for COc1c(C)cc2c(c1O)C1C3[C@H]4SC[C@@]5(NCCC6=C5NC5C=CC=CC65)C(=O)OCC(c5c6c(c(C)c(OC(C)=O)c54)OCO6)N3[C@@H](O)C(C2)N1C (some centres undefined) from this test.
stdout: TRUE

stdin: Dear colleague, could you share the recorded outcome for "Cc1sc2ccccc2[n+]1CCC(=O)O" when you have a moment?
stdout: FALSE

stdin: Call for entry "COC(=O)NNc1c([N+](=O)[O-])cnn(-c2ccccc2)c1=O" :
stdout: FALSE

More entries:
stdin: Test call for this compound, please: O=C(/C(=C/c1ccccc1)c1ccccc1)N1c2ccccc2CC1c1c[nH]c2ccccc12 (centres undefined)
stdout: FALSE

stdin: Please state the recorded outcome for this compound: "CC(C)OP(=O)(OC(C)C)c1nc(-c2ccccc2)n(-c2ccc([N+](=O)[O-])cc2)n1"
stdout: FALSE

stdin: What was the test verdict on "O=C(Cc1ccccc1)NN1C(=O)/C(=C\c2ccccc2O)S/C1=N\c1ccccc1" ?
stdout: FALSE

* * *

# Tested on: UACC-257
# assayInfo: NCI tumour cell line growth inhibition, 48 h
The source made the active and inactive calls. Rule as the data show it: active = GI50 up to about 1.1 µM and inactive = higher.
A collection of compounds and their measured GI50

The examples below pair each entry with its known result.
stdin: Which GI50 is listed for "FC(F)(F)c1ccc2c(c1)N(CCCNCCN1CCOCC1)c1ccccc1S2" ?
stdout: 10.9 µM (inactive)

stdin: Which GI50 value belongs to CN1CN(C2OC(CO)C(O)C2O)c2nc(N)[nH]c(=O)c21 (stereo unspecified) ?
stdout: > 100 µM (inactive)

stdin: Name the reported GI50 value associated with the compound "CCCCSC1=N/C(=C\c2ccc(N(C)C)cc2)C(NN)=N1"
stdout: > 100 µM (inactive)

stdin: Consider the compound CC(C)N(C(=O)C12C3C4C5C3C1(C(=O)O)C5C42)C(C)C (stereo unspecified) and give its measured GI50.
stdout: > 100 µM (inactive)

Next:
stdin: Any idea what its GI50 is? The compound is "CCSc1nnc(CSc2nc(-c3ccccc3)c(-c3ccccc3)[nH]2)n1-c1ccccc1"
stdout: 18.6 µM (inactive)

stdin: What does the data say about its GI50? Entry: "O=C(NN=C1NCCCCN1)Nc1ccc(Cl)cc1"
stdout: > 100 µM (inactive)

stdin: # lookup: GI50 of N#CC1(C#N)C2C=CC(C3CC=CC32)C1(C#N)C#N (stereo unspecified)
stdout: 12.7 µM (inactive)

stdin: What value of GI50 has been reported for the following compound? "O=S(=O)(N/N=C/c1ccc(Cl)c(Cl)c1)c1ccccc1"
stdout: 38.8 µM (inactive)

stdin: Item "CN(NC(=O)/C(=C/c1ccc(Cl)cc1)NC(=O)c1ccccc1)c1cn[nH]c(=O)c1Cl" has what recorded GI50?
stdout: > 100 µM (inactive)

stdin: Could you share which GI50 value was measured for "CC1(C)[C@@H](Cn2cnc3c(N)ncnc32)CC[C@@]1(C)CO" ?
stdout: 67.1 µM (inactive)

stdin: Would you kindly share the measured GI50 for "COc1cccc2c(NNc3ccc(Cl)cc3)c3ccc([N+](=O)[O-])cc3nc12" ?
stdout: 19.2 µM (inactive)

* * *

# Test system: IGROV-1
# assayInfo: NCI tumour cell line growth inhibition, 48 h
Activity calls are given as the source filed them. No stated cut-off is given here; in the data, active = GI50 up to about 1.1 µM and inactive = higher. *1 amine or outer side, *2 acyl side, *3 side chain or, on linkers, in order; H or OH if unused. Where a SMILES comes first, the peptide text is derived from it. [ ]: non-standard residue; d: D form. The star is where a group is joined. ξ: configuration not given here. X43 = CCC(=O)CC(O)CC(C)CC(N[*:1])C(=O)[*:2]; ξLeu(3ξ-OH) = CC(C)C(O)C(N)C(=O)O; ξPro(4ξ-Me) = CC1CNC(C(=O)O)C1; X42 = CCC(C)/C=C/C(=O)*; Aib = CC(C)(N)C(=O)O; X44 = CC(CN(C)C)N*; βAla = NCCC(=O)O
The reply should be one of these categories: active, inactive

stdin: Give the logged outcome of this assay for the following compound: C[N+]12C=CC=C1C(N1CCCC1)c1sc(-c3ccc(Cl)cc3)cc12 (stereo not drawn)
stdout: inactive

stdin: Please share the test call associated with C=COC(=O)N1C2CCCC(Cl)(C(C)=O)C1CC2 (stereo not drawn) .
stdout: inactive

stdin: Recorded call for CCC(=O)CC(O)CC(C)CC(NC(=O)C1CC(C)CN1C(=O)/C=C/C(C)CC)C(=O)NC(C(=O)NC(C)(C)C(=O)NC(CC(C)C)C(=O)NC(CC(C)C)C(=O)NC(C)(C)C(=O)NC(C)(C)C(=O)NCCC(=O)NC(C)CN(C)C)C(O)C(C)C (stereo not drawn) (X42-[ξPro(4ξ-Me)][X43][ξLeu(3ξ-OH)][Aib]LL[Aib][Aib][βAla]-X44; configuration not given here) ?
stdout: active

stdin: Dear colleague, could you share the recorded outcome for "Clc1ccccc1C(Nc1ncccn1)Nc1ncccn1" when you have a moment?
stdout: inactive

stdin: What was the test verdict on "CC1(C)[C@@H](Cn2cnc3c(N)ncnc32)CC[C@@]1(C)CO" ?
stdout: inactive

stdin: // param item: COC(=O)C1CCCN1C(=O)OC(C)(C)C (stereo not drawn) ; yields the recorded call
stdout: inactive

Next:
stdin: In this assay, the call recorded for CC1=NN(c2nc(N)nc(/C(C#N)=C\C3COc4ccccc4C3=O)n2)C(C)(C)C1 (stereo not drawn) was what?
stdout: inactive

stdin: // outcome(item) with item = "COC(=O)/C=C/c1ccccc1N=[S@](C)(=O)c1ccc(C)cc1"
stdout: inactive

* * *

# System: DMS-273
# assayInfo: NCI tumour cell line growth inhibition, 48 h
The source made the active and inactive calls. Cut-off read from the data, not from the text of the source: active = GI50 up to about 1.1 µM and inactive = higher.
A collection of compounds and their measured GI50

Solved cases below.
stdin: GI50 for "Cn1nc2ccc3nccc(N(CCO)CCO)c3c2n1" ?
stdout: > 100 µM (inactive)

stdin: Form field: reported GI50 of O=C(/C(=C/c1ccccc1)c1ccccc1)N1c2ccccc2CC1c1c[nH]c2ccccc12 (configuration not stated)
stdout: 7.83 µM (inactive)

More entries:
stdin: Please look up its GI50: "CC(C)OP(=O)(OC(C)C)c1nc(-c2ccccc2)n(-c2ccc([N+](=O)[O-])cc2)n1"
stdout: > 100 µM (inactive)

stdin: Look at this compound and give its reported GI50. "Cc1ccc(S(=O)(=O)N/N=C\c2c3ccccc3[n+](C)c3ccccc23)cc1"
stdout: 22.1 µM (inactive)
